All figures here come from paper PMC11327196.

experiment: Period 2 human ADME study: plasma PK after oral solution [14C]-mobocertinib; format: in vivo; settings: male, human, Period 2, oral solution 160 mg [14C]-mobocertinib, geometric mean (geometric CV%)

molecule	unit abbreviation	AUC(0-t)
C=CC(=O)Nc1cc(Nc2ncc(C(=O)OC(C)C)c(-c3cn(C)c4ccccc34)n2)c(OC)cc1N(C)CCN(C)C [Mobocertinib]	ng·h/mL	945

====

assay: Period 2 human ADME study: plasma PK after oral solution [14C]-mobocertinib; format: in vivo; settings: male, human, Period 2, oral solution 160 mg [14C]-mobocertinib, geometric mean (geometric CV%), read-out: Vz/F

structure smiles	Vd/F / L
C=CC(=O)Nc1cc(Nc2ncc(C(=O)OC(C)C)c(-c3cn(C)c4ccccc34)n2)c(OC)cc1N(C)CCN(C)C	5560

====

test: Period 2 human ADME study: whole blood PK after oral solution [14C]-mobocertinib; type: in vivo; conditions: male, human; Period 2, oral solution 160 mg [14C]-mobocertinib, whole blood; geometric mean (geometric CV%)

structure smiles	AUC(0-inf) / ng·h/mL
C=CC(=O)Nc1cc(Nc2ncc(C(=O)OC(C)C)c(-c3cn(C)c4ccccc34)n2)c(OC)cc1N(C)CCN(C)C	729

====

assay: Period 2 human ADME study: whole blood PK after oral solution [14C]-mobocertinib; type: in vivo; details: male, human, whole blood and plasma; Period 2, oral solution 160 mg [14C]-mobocertinib; range over time; read-out: arithmetic mean blood-to-plasma (B:P) concentration ratios
measurement label: blood plasma ratio

compound	measurement label	value measured
C=CC(=O)Nc1cc(Nc2ncc(C(=O)OC(C)C)c(-c3cn(C)c4ccccc34)n2)c(OC)cc1N(C)CCN(C)C [Mobocertinib]	blood plasma ratio	0.6 to 1.04

====

test: Period 1 absolute bioavailability study: plasma PK after single oral 160 mg mobocertinib capsules; format: in vivo, human; conditions: male, human, Period 1, oral 160 mg capsules AUC∞ vs dose-normalized IV microdose AUC∞, 90% CI 22.4–60.2%, read-out: geometric mean absolute oral bioavailability

structure smiles	bioavailability, %
C=CC(=O)Nc1cc(Nc2ncc(C(=O)OC(C)C)c(-c3cn(C)c4ccccc34)n2)c(OC)cc1N(C)CCN(C)C	36.7

====

assay: Period 2 human ADME study: whole blood PK after oral solution [14C]-mobocertinib; type: in vivo; settings: male, human; Period 2, oral solution 160 mg [14C]-mobocertinib, whole blood; geometric mean (geometric CV%)

structure smiles	AUC(0-t), ng·h/mL
C=CC(=O)Nc1cc(Nc2ncc(C(=O)OC(C)C)c(-c3cn(C)c4ccccc34)n2)c(OC)cc1N(C)CCN(C)C	718
